# Assayed target: MS2 coat protein, dlFG mutant (Escherichia phage MS2, UniProt P03612, del68-81insG)
# Assay details: 4 mM Mg2+; theophylline 2 mM; RNA-MaP array; 100 mM Tris-HCl pH 7.5, 80 mM KCl, 4 mM MgCl2, 0.1 mg/mL BSA, 1 mM DTT, 0.01 mg/mL yeast tRNA, 0.01% Tween-20; protein 1.5 nM to 3 uM; 37 C (Table S3)
# Condition set: chain copies: 2; label: tethered by stalled RNA polymerase
Measure: Kd (µM)
// units = µM; emit number, no label

Sample Eterna 7639274 (Exclusion - Theophylline B) (ssRNA) RNA: UUAUUUAUAAUGGAUACCAGUGCUGUGGCCCGGCAUCCUGACAUGAGGAUCACCCAUGUGUACCCUUGGCAGCUGUUAUGGGUUU — what was its Kd?
0.0242
